Test system U251 CNS, GI50 listed for each of the compounds.

Exam item: Record lookup: for U251 CNS, what GI50 belongs to CCCCCCCCCCCCOC1C(CNCC2OC3OC(C)(C)OC3C2NC(=O)Nc2ccc(C(F)(F)F)cc2)OC2OC(C)(C)OC21 (stereo not drawn) ?
Marked response: 4630 nM

---

Test system: HCC-2998 colon
Assay: NCI tumour cell line growth inhibition, 48 h
measureName: TGI

// below: answered molecules
INSERT INTO results (molecule, measurename, valuemeasured) VALUES
  ('CCCCCCCCCCCCOC1C(CNCC2OC3OC(C)(C)OC3C2NC(=O)Nc2ccc(C(F)(F)F)cc2)OC2OC(C)(C)OC21 (stereo not given)', 'TGI', '5.88 µM'),
  ('COc1cc(-c2nc(-c3nnc(-c4ccc(F)c(Cl)c4)o3)c3ccccn23)cc(OC)c1OC', 'TGI', '> 100 µM'),
  ('O=Nc1ccc(O)c2ncccc12', 'TGI', '31.1 µM'),
  ('Cc1cccc(Cl)c1NC(N)=S', 'TGI', '> 100 µM');

Now for the molecule whose TGI we want.
Exam item: Which TGI reading was recorded for the molecule COc1ccc2c(c1)CCC(CN1CCN(CCOC(c3ccc(F)cc3)c3ccc(F)cc3)CC1)C2O (stereo not given) ?
Marked response: 9.33 µM
